- assayed target: human mGluR2 receptor (Homo sapiens, UniProt Q14416)
- Construct: expressed in transfected cells; host or cells: CHO cells (membranes)
- Sequence (Q14416 19-872): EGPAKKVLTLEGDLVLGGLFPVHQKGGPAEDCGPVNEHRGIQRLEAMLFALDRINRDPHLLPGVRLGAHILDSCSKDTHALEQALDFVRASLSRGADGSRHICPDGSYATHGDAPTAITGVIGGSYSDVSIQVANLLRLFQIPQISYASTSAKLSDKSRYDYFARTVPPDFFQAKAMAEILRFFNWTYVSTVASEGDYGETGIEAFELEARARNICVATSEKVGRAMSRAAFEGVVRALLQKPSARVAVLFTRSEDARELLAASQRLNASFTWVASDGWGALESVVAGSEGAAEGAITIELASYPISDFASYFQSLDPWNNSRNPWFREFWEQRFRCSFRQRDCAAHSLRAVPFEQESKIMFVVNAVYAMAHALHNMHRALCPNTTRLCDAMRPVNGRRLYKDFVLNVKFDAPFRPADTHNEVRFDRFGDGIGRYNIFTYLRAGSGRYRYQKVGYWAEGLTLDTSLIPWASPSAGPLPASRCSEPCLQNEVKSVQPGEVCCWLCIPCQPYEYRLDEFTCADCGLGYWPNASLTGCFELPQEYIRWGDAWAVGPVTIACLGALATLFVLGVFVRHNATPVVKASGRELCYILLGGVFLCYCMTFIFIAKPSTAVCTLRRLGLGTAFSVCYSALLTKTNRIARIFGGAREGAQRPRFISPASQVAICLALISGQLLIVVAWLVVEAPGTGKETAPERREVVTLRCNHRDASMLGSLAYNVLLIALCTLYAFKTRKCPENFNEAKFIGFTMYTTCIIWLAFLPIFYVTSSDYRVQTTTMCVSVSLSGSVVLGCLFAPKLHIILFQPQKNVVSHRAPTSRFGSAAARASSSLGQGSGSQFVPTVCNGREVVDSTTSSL
- procedure summary: [35S]GTPγS binding assay, mGluR2 positive allosteric modulation (PAM)
- Type: biochemical
- cond: membranes from CHO cells transfected with human mGluR2; in presence of glutamate at EC20; maximal % effect relative to the control glutamate response
- Experimental: The [^35S]GTPγS binding assay is a functional membrane-based assay used to study G-protein coupled receptor (GPCR) function whereby incorporation of a non-hydrolysable form of GTP, [^35S]GTPγS (guanosine 5′-triphosphate, labelled with gamma-emitting ^35S), is measured. […] CHO-cells were cultured to pre-confluence and stimulated with 5 mM butyrate for 24 h. […] Protein concentration was determined by the Bradford method (Bio-Rad, USA) with bovine serum albumin as standard. […]
// classify: if (GTPγS - hmGluR2 PAM Emax < 300%) yes (1) else no (0)

Example entries begin here.
[[record]]
molecule = "CC1(c2ccccc2)CN(Cc2ccn3c(CC4CC4)nnc3c2C(F)(F)F)CCO1 (single isomer, unassigned) [Compound 8b]"
assayed_target = "human mGluR2 receptor (Homo sapiens, UniProt Q14416)"
category = "yes (1)"

[[record]]
molecule = "Fc1ccc(C2CN(Cc3ccn4c(CC5CC5)nnc4c3C(F)(F)F)CCN2)c(F)c1 (single isomer, unassigned) [Compound 19b]"
assayed_target = "human mGluR2 receptor (Homo sapiens, UniProt Q14416)"
category = "yes (1)"

[[record]]
molecule = "Fc1ccc(C2CN(Cc3ccn4c(CC5CC5)nnc4c3C(F)(F)F)CCN2)c(F)c1 (single isomer, unassigned) [Compound 19a]"
assayed_target = "human mGluR2 receptor (Homo sapiens, UniProt Q14416)"
category = "no (0)"


Q: # TODO verify GTPγS - hmGluR2 PAM Emax < 300% strictly for this molecule: Fc1ccccc1C1CN(Cc2ccn3c(CC4CC4)nnc3c2C(F)(F)F)CCN1 (single isomer, unassigned) [Compound 6a]
Ans: yes (1)

Q: Follow-up item: CC1(c2ccccc2)CN(Cc2ccn3c(CC4CC4)nnc3c2C(F)(F)F)CCO1 (single isomer, unassigned) [Compound 8a]
Ans: yes (1)
